- assay_summary: Pharmacokinetics studies in mice (i.v. and s.c. bolus, plasma LC–MS/MS)
- Assay type: in vivo
- condition_set: both sexes, C57BL/6 N J, sc; mouse, 3 mg/kg, plasma LC–MS/MS
Where no end group is shown, it is not given here.
experimental_endpoint: bioavailability (%)
Reply with just the number (in %).

Reported bioavailability for AEDQELESLSAIEAELEKVAHQLQALRR-NH2 [ChgA 435−462a] : what is it?
50.4

----------
- assay_summary: Pharmacokinetics studies in mice (i.v. and s.c. bolus, plasma LC–MS/MS)
- Type: in vivo
- condition_set: both sexes, C57BL/6 N J, sc; mouse, 1 mg/kg, plasma LC–MS/MS
Where no end group is shown, it is not given here.
experimental_endpoint: bioavailability
Could you give the number and then its unit, please?

Reported bioavailability for AEDQELESLSAIEAELEKVAHQLQALRR-NH2 [ChgA 435−462a] : what is it?
46.7%

----------
- assay_summary: Pharmacokinetics studies in mice (i.v. and s.c. bolus, plasma LC–MS/MS)
- Format: in vivo
- condition_set: both sexes, C57BL/6 N J, sc; mouse, 1 mg/kg, tail vein blood over 90 min, plasma LC–MS/MS
Where no end group is shown, it is not given here.
experimental_endpoint: AUC (ng·h/mL)
Reply with just the number (in ng·h/mL).

Reported AUC for AEDQELESLSAIEAELEKVAHQLQALRR-NH2 [ChgA 435−462a] : what is it?
169

----------
- assay_summary: Pharmacokinetics studies in mice (i.v. and s.c. bolus, plasma LC–MS/MS)
- Assay type: in vivo
- condition_set: both sexes, C57BL/6 N J, sc; mouse, 3 mg/kg, tail vein blood over 90 min, plasma LC–MS/MS
- Description: Male and female mice aged between 12–18 weeks old were used for these studies. […] A Xevo TQ-XS triple quadrupole mass spectrometer coupled to H-class Aquity UPLC system enabled high throughput and targeted sample analysis. […] Table 1 details the specifications used to quantify Gast p59−79, ChgA 435−462a, Sst 25−36 and their stable isotope labelled versions on a Xevo TQ-XS mass spectrometer. […]
Where no end group is shown, it is not given here.
experimental_endpoint: AUC (ng·h/mL)
Reply with just the number (in ng·h/mL).

Reported AUC for AEDQELESLSAIEAELEKVAHQLQALRR-NH2 [ChgA 435−462a] : what is it?
547

----------
- assay_summary: Pharmacokinetics studies in mice (i.v. and s.c. bolus, plasma LC–MS/MS)
- Format: in vivo
- condition_set: both sexes, C57BL/6 N J, sc; mouse, 10 mg/kg, tail vein blood over 90 min, plasma LC–MS/MS
- Description: Male and female mice aged between 12–18 weeks old were used for these studies. […] A Xevo TQ-XS triple quadrupole mass spectrometer coupled to H-class Aquity UPLC system enabled high throughput and targeted sample analysis. […] Table 1 details the specifications used to quantify Gast p59−79, ChgA 435−462a, Sst 25−36 and their stable isotope labelled versions on a Xevo TQ-XS mass spectrometer. […]
Where no end group is shown, it is not given here.
experimental_endpoint: AUC (ng·h/mL)
Reply with just the number (in ng·h/mL).

Reported AUC for APSDPRLRQFLQ [Sst 25−36] : what is it?
3.3

----------
- assay_summary: Pharmacokinetics studies in mice (i.v. and s.c. bolus, plasma LC–MS/MS)
- Format: in vivo
- condition_set: both sexes, C57BL/6 N J, iv; mouse, 1 mg/kg, tail vein blood over 90 min, plasma LC–MS/MS
Where no end group is shown, it is not given here.
experimental_endpoint: AUC
Could you give the number and then its unit, please?

Reported AUC for AEDQELESLSAIEAELEKVAHQLQALRR-NH2 [ChgA 435−462a] : what is it?
362 ng·h/mL
